tested on: MDA-MB-435; assay: NCI tumour cell line growth inhibition, 48 h
Active and inactive are the calls of the source. Cut-off read from the data, not from the text of the source: active = GI50 up to about 1.1 µM and inactive = higher.

Molecule: Cc1c(/N=N/c2ccccc2)c(-c2ccccc2)n(C2OC(CO)C(O)C(O)C2O)c(=S)c1C#N (stereo unspecified)
Tested on: MDA-MB-435
GI50: 4.98 µM (inactive)
--
Molecule: CC(C)(C)C1CCC2c3c([nH]c4ccccc34)C3C(=O)N(c4ccc([N+](=O)[O-])cc4)C(=O)C3C2C1 (stereo unspecified)
Tested on: MDA-MB-435
GI50: 28.1 µM (inactive)
--
Molecule: CC(=O)c1c(O)cc(O)c(-c2c(C)cc(O)c3c2C(=O)c2cccc(O)c2C3=O)c1O
Tested on: MDA-MB-435
GI50: 16.7 µM (inactive)
--
Molecule: O=[N+]([O-])/C(C(Cl)=C(Cl)Cl)=C(/Sc1ccccc1)N1CCOCC1
Tested on: MDA-MB-435
GI50: 2.59 µM (inactive)
--
Molecule: N#C/C(C(=O)Nc1ccc(Cl)cc1)=C(/N)N1CCCCC1
Tested on: MDA-MB-435
GI50: > 100 µM (inactive)
--
Molecule: O=c1[nH]nc(N/N=C\c2ccc(Cl)cc2)c2ccccc12
Tested on: MDA-MB-435
GI50: 17.8 µM (inactive)
--
Molecule: Cn1c(COC(=O)NC2CCCCC2)c(COC(=O)NC2CCCCC2)c2ccc3cc(C=O)ccc3c21
Tested on: MDA-MB-435
GI50: 45.7 µM (inactive)
--
Molecule: CCOC(=O)/C(=C\c1ccc(CO)o1)P(=O)(OCC)OCC
Tested on: MDA-MB-435
GI50: 29 µM (inactive)
--
Molecule: O=C(O)CCO/N=C1/C(=C2/C(=O)Nc3ccccc32)Nc2ccccc21
Tested on: MDA-MB-435
GI50: 29.6 µM (inactive)
--
Molecule: CN(/N=C/c1ccccc1O)c1ccc2ccccc2n1
Tested on: MDA-MB-435
GI50: 44.4 µM (inactive)
--
Molecule: CCN(CC)CCC(=O)c1ccc(Oc2ccc(C)cc2)cc1
Tested on: MDA-MB-435
GI50: 18 µM (inactive)
--
Molecule: Cc1ccc(S(=O)(=O)n2cc(C#N)c(C#N)c2)cc1
Tested on: MDA-MB-435
GI50: 19.8 µM (inactive)
--
Molecule: C=C(c1ccccc1)C1ON(C)CCc2cc(OC)c(OC)cc21 (stereo unspecified)
Tested on: MDA-MB-435
GI50: 84.9 µM (inactive)
--
Molecule: COc1ccc(-c2cc(=O)c3c(O)cc(O)cc3o2)cc1OC
Tested on: MDA-MB-435
GI50: > 100 µM (inactive)
--
Molecule: Oc1ccc(O)c(Cc2ccccc2)c1
Tested on: MDA-MB-435
GI50: 19.5 µM (inactive)
--
Molecule: C=C1CC[C@]2(C)[C@H](CC[C@@]34C[C@@H](CC[C@H]32)[C@@H](C(=O)O)C4)C1(C)C
Tested on: MDA-MB-435
GI50: > 12.5 µM (inactive)
--
Molecule: CCCCCCCCCCCCC/C=C(/COCC[N+](C)(C)C)OC(C)=O.CCCCCCCCCCCCCC/C(=C/OCC[N+](C)(C)C)OC(C)=O
Tested on: MDA-MB-435
GI50: 2.58 µM (inactive)
--
Molecule: CCCC1(N)CC(OC)OC(C)C1O (stereo unspecified)
Tested on: MDA-MB-435
GI50: > 100 µM (inactive)
--
Molecule: CC(C(O)c1ccccc1)[N+](=O)[O-] (stereo unspecified)
Tested on: MDA-MB-435
GI50: 18.5 µM (inactive)
--
Molecule: C/C(=N\NC(N)=S)c1nc2cccnc2[nH]1
Tested on: MDA-MB-435
GI50: 52.4 µM (inactive)
--
Molecule: O=C1c2ccccc2-c2c1c(-c1ccccc1)c1n2C2(C(=O)c3ccccc3C2=O)C2C(=O)N(c3ccccc3)C(=O)C12 (stereo unspecified)
Tested on: MDA-MB-435
GI50: 19.8 µM (inactive)

----------
tested on: K562; assay: NCI tumour cell line growth inhibition, 48 h
Calls of active or inactive are those of the source. Cut-off read from the data, not from the text of the source: active = GI50 up to about 1.1 µM and inactive = higher.
Classes used: active, inactive

Compound: FC(F)(F)c1ccccc1/C=N/C12CC3CC(CC(C3)C1)C2
Category: inactive
//
Compound: O=C1N(c2ccccc2)C2(O)C(=O)c3ccccc3C2(O)N1c1ccccc1 (stereo not given)
Category: inactive
//
Compound: COc1cc2c(cc1O)Cc1c-2[n+](C)cc2cc(OC)c(OC)cc12
Category: inactive
//
Compound: CO/C(N)=C(C#N)/N=C/c1ccc2ccccc2c1
Category: inactive
//
Compound: O=[N+]([O-])c1ccc(-n2nc3ccc4c(no[n+]4[O-])c3[n+]2[O-])c([N+](=O)[O-])c1
Category: inactive
//
Compound: COC1=CC(=O)C2=C(C[C@@]3(C)C(=C2)C(CO)=CC[C@H]3O)C1=O
Category: inactive
//
Compound: O=c1cc(-c2ccccc2)[nH]c2ccc(N3CCCCC3)cc12
Category: active
//
Compound: CCOc1ccc2nc3nc(O)nc(C)c3c(NCCCN(CC)CC)c2c1
Category: inactive
//
Compound: COc1ccc2c(c1)[C@@H](NC(C)=O)CCc1cc(OC)c(OC)c(OC)c1-2
Category: active
//
Compound: COC1CN(C)/C(=N\c2cccc3ccccc23)S1 (stereo not given)
Category: inactive

----------
tested on: NCI-H460; assay: NCI tumour cell line growth inhibition, 48 h
Activity calls are given as the source filed them. No stated cut-off is given here; in the data, active = GI50 up to about 1.1 µM and inactive = higher. Non-standard residues stand in square brackets, D forms with d. Residues, ends and D or L forms follow the SMILES beside them. *: point of attachment. Bn2Val = CC(C)[C@@H](C(=O)*)N(Cc1ccccc1)Cc1ccccc1; NMeV = CN[C@H](C(=O)O)C(C)C; X32 = COc1ccc(CN*)c(OC)c1; dNMeA = CN[C@H](C)C(=O)O

Compound: CC(=O)N1N=C(c2ccc3ccccc3c2O)CC1c1cccs1 (stereo not given)
Tested on: NCI-H460
GI50: 8.49 µM (inactive)
//
Compound: CCc1c(C#N)c(=O)[nH]c(=O)n1CCN1CCN(C(=O)NCCCCCCNC(=O)N2CCN(CCn3c(CC)c(C#N)c(=O)[nH]c3=O)CC2)CC1
Tested on: NCI-H460
GI50: > 100 µM (inactive)
//
Compound: Clc1cc2nn(C3CCCCO3)nc2cc1Cl (stereo not given)
Tested on: NCI-H460
GI50: > 100 µM (inactive)
//
Compound: O=C(/C=C1/Nc2ccc([N+](=O)[O-])cc2N/C1=C/C(=O)c1ccc(Cl)cc1)c1ccccc1
Tested on: NCI-H460
GI50: 32 µM (inactive)
//
Compound: CCc1n[nH]c(=O)n1NC(=O)/C=C\C(=O)O
Tested on: NCI-H460
GI50: > 100 µM (inactive)
//
Compound: Cc1ccc(C2=[N+]([O-])c3ccccc3C2=O)cc1
Tested on: NCI-H460
GI50: 36.3 µM (inactive)
//
Compound: O=C1Nc2ccc(Cl)c(I)c2C1=O
Tested on: NCI-H460
GI50: 21.2 µM (inactive)
//
Compound: CCCCOC(=O)c1cc(C(=CCC[C@H]2CC[C@@]3(C)[C@@H](CC[C@@H]4[C@@H]3CC[C@]3(C)[C@@H](C(C)CCCC(C)C)CC[C@@H]43)C2)c2cc(Cl)c(O)c(C(=O)OCCCC)c2)cc(Cl)c1O (stereo not given in full)
Tested on: NCI-H460
GI50: > 50 µM (inactive)
//
Compound: Cc1cc(S(=O)(=O)O)c(NC(=O)C(=O)C2C=CCS2(=O)=O)cc1Cl (stereo not given)
Tested on: NCI-H460
GI50: > 100 µM (inactive)
//
Compound: Nc1ccccc1SC(/C=C/NNC1=NN=C(c2ccccc2)C(c2ccccc2)N1)c1ccccc1 (stereo not given)
Tested on: NCI-H460
GI50: 18.5 µM (inactive)
//
Compound: COc1cccc(N2C(=O)/C(=C/c3ccc(N(CCC#N)CCC#N)cc3)N=C2c2cc([N+](=O)[O-])ccc2Cl)c1
Tested on: NCI-H460
GI50: 43.5 µM (inactive)
//
Compound: O=[N+]([O-])c1ccc(-n2nc3ccc4c(no[n+]4[O-])c3[n+]2[O-])c([N+](=O)[O-])c1
Tested on: NCI-H460
GI50: 5.55 µM (inactive)
//
Compound: OC(CC(CC(O)(C(F)(F)Cl)C(F)(F)Cl)=NNc1ccccc1)(C(F)(F)Cl)C(F)(F)Cl
Tested on: NCI-H460
GI50: 3.04 µM (inactive)
//
Compound: C/C(=N\NC(=S)NC(CCC(=O)O)C(=O)O)c1ccccn1 (stereo not given)
Tested on: NCI-H460
GI50: > 100 µM (inactive)
//
Compound: CCNC1CC(n2cc(C)c(=O)[nH]c2=O)OC1CO (stereo not given)
Tested on: NCI-H460
GI50: > 100 µM (inactive)
//
Compound: CC(=O)c1cccc(NC(=O)C(=O)C(C(=O)NN)c2ccccc2)c1 (stereo not given)
Tested on: NCI-H460
GI50: > 100 µM (inactive)
//
Compound: Fc1ccc(C(OCCN2CCC3CCC(C2)N3C/C=C/c2ccco2)c2ccc(F)cc2)cc1 (stereo not given)
Tested on: NCI-H460
GI50: 7.11 µM (inactive)
//
Compound: O=C(Nc1ccccc1)c1cc2c(cc1Cl)Sc1nccn1S2(=O)=O
Tested on: NCI-H460
GI50: 16.6 µM (inactive)
//
Compound: CC(C(O)c1ccccc1)[N+](=O)[O-] (stereo not given)
Tested on: NCI-H460
GI50: 35.2 µM (inactive)
//
Compound: CCOC(=O)NN(C(=O)OCC)C(C(=O)c1ccccc1)N(NC(=O)OCC)C(=O)OCC
Tested on: NCI-H460
GI50: > 100 µM (inactive)
//
Compound: O=C1CCCCN1
Tested on: NCI-H460
GI50: > 1120 µM (inactive)
//
Compound: O=C(OCc1ccccc1)n1cccc1
Tested on: NCI-H460
GI50: > 100 µM (inactive)
//
Compound: NCCC(=O)N[C@@H](Cc1cc(O)c(O)c(SCC(NC(=O)CC[C@H](N)C(=O)O)C(=O)NCC(=O)O)c1)C(=O)O (stereo not given in full)
Tested on: NCI-H460
GI50: > 50 µM (inactive)
//
Compound: C[C@H]1C2Cc3cc(O)ccc3[C@@]1(C)CCN2CCc1ccc(N)cc1
Tested on: NCI-H460
GI50: 30.3 µM (inactive)
//
Compound: O=C1C=CC(=O)C1(Br)Br
Tested on: NCI-H460
GI50: 19.3 µM (inactive)
//
Compound: Nc1c(C(=O)Nc2ccccc2O)[n+]([O-])c2ccccc2[n+]1[O-]
Tested on: NCI-H460
GI50: 27 µM (inactive)
//
Compound: NC12CC3CC4C1CC1CC2C(C3)C4(N)C1
Tested on: NCI-H460
GI50: > 100 µM (inactive)
//
Compound: O=C(CSc1nnc(-c2ccc(/N=C\c3ccc(Cl)cc3)cc2)o1)Nc1ccc([N+](=O)[O-])cc1
Tested on: NCI-H460
GI50: 36.4 µM (inactive)
//
Compound: CC(=O)OCC1OC(n2c(-c3ccc(C)cc3)cc(-c3ccccc3)c(C#N)c2=S)C(OC(C)=O)C(OC(C)=O)C1OC(C)=O (stereo not given)
Tested on: NCI-H460
GI50: > 100 µM (inactive)
//
Compound: COc1ccc(-n2c(CCCC(=O)O)nc3c2C(=O)c2ccccc2C3=O)cc1
Tested on: NCI-H460
GI50: 93.1 µM (inactive)
//
Compound: CC#CC(O)(C(=O)OCCCN(C)C)C1CCCCC1 (stereo not given)
Tested on: NCI-H460
GI50: > 100 µM (inactive)
//
Compound: O=c1[nH]nc(N/N=C\c2ccc(Cl)cc2)c2ccccc12
Tested on: NCI-H460
GI50: 20.3 µM (inactive)
//
Compound: CC(C)(C)OC(=O)NC1CCCCC1NC(=O)C(=O)NC1CCCCC1NC(=O)OC(C)(C)C (stereo not given)
Tested on: NCI-H460
GI50: > 100 µM (inactive)
//
Compound: CC1=CCCC(OC(N)=O)C1 (stereo not given)
Tested on: NCI-H460
GI50: > 100 µM (inactive)
//
Compound: COc1ccc(CNC(=O)[C@@H]2CCCN2C(=O)[C@@H](C)N(C)C(=O)[C@H](C(C)C)N(C)C(=O)[C@@H](NC(=O)[C@H](C(C)C)N(Cc2ccccc2)Cc2ccccc2)C(C)C)c(OC)c1 (Bn2Val-V[NMeV][dNMeA]P-X32)
Tested on: NCI-H460
GI50: 3.52 µM (inactive)
//
Compound: CSc1nc2c(nc(N)n2C2OC(CO)C(O)C(O)C2O)c(=O)[nH]1 (stereo not given)
Tested on: NCI-H460
GI50: > 100 µM (inactive)
//
Compound: O=C(O)c1ccc(N2C=[N+]3C(=Nc4ccccc43)C2)cc1
Tested on: NCI-H460
GI50: > 100 µM (inactive)
//
Compound: CC(=O)CC(=O)Nc1ccccc1C(F)(F)F
Tested on: NCI-H460
GI50: > 100 µM (inactive)
//
Compound: CC(=O)n1[nH]c(=O)n(-c2ccccc2)c1=O
Tested on: NCI-H460
GI50: > 100 µM (inactive)
//
Compound: N#C/C(C(=O)Nc1ccc(Cl)cc1)=C(/N)N1CCCCC1
Tested on: NCI-H460
GI50: > 100 µM (inactive)
